Recorded Mouse Rotarod percent effect (in parentheses beside ED50), one value per entry.
Tested on: Swiss male mice
TEST DETAILS: Rotarod Test in Mice (ataxic reaction)
Assay type: in vivo, mouse
DETAILS: subcutaneous, t=-30 min; ED50 of 10 mg/kg
OBSERVATION TYPE: Mouse Rotarod percent effect (in parentheses beside ED50) (%)

MOLECULE: CN(C(=O)Cc1coc2ccccc12)[C@H](CN1CCCC1)c1cccc(OCC(=O)O)c1 [Compound 19]
OBS VALUE: 0

MOLECULE: CN(C(=O)Cc1cc2ccccc2o1)[C@H](CN1CC[C@H](O)C1)c1cccc(OCC(=O)O)c1 [Compound 33]
OBS VALUE: 53

MOLECULE: CN(C(=O)Cc1coc2ccccc12)[C@H](CN1CC[C@H](O)C1)c1cccc(OCC(=O)O)c1 [Compound 28]
OBS VALUE: 53

MOLECULE: CN(C(=O)Cc1cc2ccccc2o1)[C@H](CN1CCCC1)c1cccc(OCC(=O)O)c1 [Compound 15]
OBS VALUE: 0

MOLECULE: CN(C(=O)Cc1ccc(S(C)(=O)=O)cc1)[C@H](CN1CC[C@H](O)C1)c1cccc(OCC(=O)O)c1 [Compound 43]
OBS VALUE: 0

MOLECULE: CN(C(=O)Cc1cccc2occc12)[C@H](CN1CC[C@H](O)C1)c1cccc(OCC(=O)O)c1 [Compound 38]
OBS VALUE: 0

* * *

ED50 at 0.5 h listing for selected compounds.
TEST DETAILS: Rotarod Test in Mice (ataxic reaction)
Format: in vivo, mouse
DETAILS: mouse, rotarod, sc; subcutaneous, t=-30 min

COMPOUND: CN(C(=O)Cc1cc2ccccc2o1)[C@H](CN1CC[C@H](O)C1)c1cccc(OCC(=O)O)c1 [Compound 33]
ED50 at 0.5 h: ~10 mg/kg

COMPOUND: CN(C(=O)Cc1cccc2occc12)[C@H](CN1CC[C@H](O)C1)c1cccc(OCC(=O)O)c1 [Compound 38]
ED50 at 0.5 h: > 10 mg/kg

COMPOUND: CN(C(=O)Cc1coc2ccccc12)[C@H](CN1CCCC1)c1cccc(OCC(=O)O)c1 [Compound 19]
ED50 at 0.5 h: > 10 mg/kg

COMPOUND: CN(C(=O)Cc1cc2ccccc2o1)[C@H](CN1CCCC1)c1cccc(OCC(=O)O)c1 [Compound 15]
ED50 at 0.5 h: > 10 mg/kg

COMPOUND: CN(C(=O)Cc1coc2ccccc12)[C@H](CN1CC[C@H](O)C1)c1cccc(OCC(=O)O)c1 [Compound 28]
ED50 at 0.5 h: ~10 mg/kg

COMPOUND: CN(C(=O)Cc1ccc(S(C)(=O)=O)cc1)[C@H](CN1CC[C@H](O)C1)c1cccc(OCC(=O)O)c1 [Compound 43]
ED50 at 0.5 h: > 10 mg/kg

The reported measurements were obtained from patent US6057357A.
